testedTarget: ER (Homo sapiens (Human), UniProt P03372)
Sequence (P03372 whole entry): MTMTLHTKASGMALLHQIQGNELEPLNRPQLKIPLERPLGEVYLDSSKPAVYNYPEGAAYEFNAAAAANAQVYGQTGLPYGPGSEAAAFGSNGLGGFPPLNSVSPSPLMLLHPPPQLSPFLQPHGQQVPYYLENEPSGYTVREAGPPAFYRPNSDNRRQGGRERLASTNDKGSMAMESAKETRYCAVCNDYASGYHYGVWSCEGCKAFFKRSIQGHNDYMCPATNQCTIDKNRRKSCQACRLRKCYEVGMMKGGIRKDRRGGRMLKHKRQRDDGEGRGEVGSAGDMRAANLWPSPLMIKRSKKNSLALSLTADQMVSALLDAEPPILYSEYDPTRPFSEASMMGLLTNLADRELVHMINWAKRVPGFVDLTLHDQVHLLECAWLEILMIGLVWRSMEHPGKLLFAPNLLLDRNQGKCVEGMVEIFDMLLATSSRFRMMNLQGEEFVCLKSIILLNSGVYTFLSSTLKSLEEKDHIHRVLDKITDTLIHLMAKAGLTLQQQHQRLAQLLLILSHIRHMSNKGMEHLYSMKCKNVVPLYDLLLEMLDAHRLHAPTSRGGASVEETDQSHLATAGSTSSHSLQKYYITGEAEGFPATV
protocol: In-cell western (ICW) ER degradation assay in MCF-7 cells
Format: cell-based
assayContext: MCF7, maximal ER degradation, MCF7, 16 hrs
Item-by-item account of Dmax

# compound, Dmax
records = [
    ("Cc1nn(C2CCC(=O)NC2=O)c2ccc(N3CCN(CC4CC5(CCN(c6ccc([C@H]7c8ccc(O)cc8OC[C@H]7c7ccccc7)cc6)CC5)C4)CC3)cc12 (single isomer, unassigned) [Compound A17]", "50 to 75%"),
    ("O=C1CCC(N2Cc3cc4c(cc3C2=O)OC[C@@H]2CN(CC3CC5(CCN(c6ccc([C@H]7c8ccc(O)cc8OC[C@H]7c7ccccc7)cc6)CC5)C3)CCN42)C(=O)N1 (single isomer, unassigned) [Compound A27]", "50 to 75%"),
    ("O=C1CCC(N2Cc3cc4c(cc3C2=O)CN(C(=O)CN2CCC3(CC2)CN(c2ccc([C@H]5c6ccc(O)cc6OC[C@H]5c5ccccc5)cc2)C3)C4)C(=O)N1 (some centres unmarked) [Compound A48]", "< 25%"),
    ("COc1cc(N2CCC(CN3CCC4(CC3)COc3cc5c(cc34)CN(C3CCC(=O)NC3=O)C5=O)CC2)ccc1[C@H]1c2ccc(O)cc2OC[C@H]1c1ccccc1 (some centres unmarked) [Compound A136]", "50 to 75%"),
    ("O=C1CCC(N2Cc3c(ccc4c3OC[C@H]3CN(CC5CCN(c6ccc([C@@H]7c8ccc(O)cc8OC[C@@H]7c7ccccc7)cn6)CC5)CCN43)C2=O)C(=O)N1 (single isomer, unassigned) [Compound A69]", "< 25%"),
]
